Test system: BT474
assay.notes: MTS assay
Type: cell-based
condition.parameters: Homo sapiens, BT-474, read-out: Average of [CELL], IC50, MTS (72 hours; 10 Percent; FBS)
Description: Cell proliferation analysis.
quantity.kind: IC50 (nM)
Report as a plain number; the unit nM is understood.

Which value of IC50 has been reported for Nc1ncccc1-c1nc2ccc(-c3ccccc3)nc2n1-c1ccc(C2(N)CCC2)cc1 in the records?
1300

###

tested.on: AKT1 (Homo sapiens, UniProt P31749)
Sequence (P31749 whole entry): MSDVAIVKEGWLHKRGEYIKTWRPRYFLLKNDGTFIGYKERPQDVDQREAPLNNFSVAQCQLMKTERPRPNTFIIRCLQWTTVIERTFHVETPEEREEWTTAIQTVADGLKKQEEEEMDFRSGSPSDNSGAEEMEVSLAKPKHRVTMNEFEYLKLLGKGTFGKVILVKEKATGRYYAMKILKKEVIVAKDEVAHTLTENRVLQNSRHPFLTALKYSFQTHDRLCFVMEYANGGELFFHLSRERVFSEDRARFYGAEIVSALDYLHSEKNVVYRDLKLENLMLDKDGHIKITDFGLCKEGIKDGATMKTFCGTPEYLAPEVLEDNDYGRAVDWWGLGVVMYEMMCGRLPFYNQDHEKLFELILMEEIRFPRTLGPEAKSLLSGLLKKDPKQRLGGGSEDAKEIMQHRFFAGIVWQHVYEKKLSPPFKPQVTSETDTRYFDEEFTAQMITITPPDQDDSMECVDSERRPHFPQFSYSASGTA
assay.notes: Inactive AKT Alpha Screen Assay
quantity.kind: IC50 (nM)
Report as a plain number; the unit nM is understood.

Which value of IC50 has been reported for Nc1ncccc1-c1nc2ccc(-c3cccc(N4CCOCC4)c3)nc2n1-c1ccc(C2(N)CCC2)cc1 [Compound 2] in the records?
2.2
